Recorded pKi, one value per entry.
target: NA reuptake; assay: Inhibition of NA reuptake in rat brain synaptosomes (P2 fraction, hypothalamus); details: hypothalamus, Ki from IC50 by Cheng-Prusoff
pKi: −log10 of the molar value.

>  <COMPOUND>
CN(C)CC1=C(Cc2ccc(Cl)cc2)CCCCC1.Cl [Example 1, hydrochloride]

>  <pKi>
7.52

$$$$
>  <COMPOUND>
CN(C)CC1=C(Cc2ccc(Cl)cc2)CCCCCC1.Cl [Example 2b, hydrochloride]

>  <pKi>
6.47

$$$$

The reported numbers originate from patent US7342133B2.
